Tested on: RARa:RXR (NR concentration 270 nM, RXRa partner concentration 90 nM)
Experiment: PBM binding z-score (relative to random genomic background probes); higher = stronger binding; sequences stand for … in GC…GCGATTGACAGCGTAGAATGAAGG
measured.quantity: PBM binding z-score
Reply briefly: the number, and no unit.

Incoming: GET /values?readout=PBM binding z-score&system=RARa:RXR (NR concentration 270 nM, RXRa partner concentration 90 nM)&item= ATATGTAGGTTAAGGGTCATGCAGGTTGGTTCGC
Outgoing: 6.47

---
Incoming: Form field: PBM binding z-score recorded for TAGCCAAGGTCATTCAGGGGCCAGTATAGAAAGC with RARa:RXR (NR concentration 270 nM, RXRa partner concentration 90 nM) (enter value)
Outgoing: 5.72

Incoming: Find the measured PBM binding z-score: item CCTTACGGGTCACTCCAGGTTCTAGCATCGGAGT , target or system RARa:RXR (NR concentration 270 nM, RXRa partner concentration 90 nM).
Outgoing: 3.39

Incoming: PBM binding z-score of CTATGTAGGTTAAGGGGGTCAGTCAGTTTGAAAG on RARa:RXR (NR concentration 270 nM, RXRa partner concentration 90 nM)?
Outgoing: 4.15

Incoming: Missing value: PBM binding z-score, RARa:RXR (NR concentration 270 nM, RXRa partner concentration 90 nM), entry TCGAGTAGGTTACGGGGGCATGCAGGGATGAAGA . Fill in?
Outgoing: 2.91

Incoming: Hi! What's the reported PBM binding z-score for CTATGTAGGTTAAGGGGGTCGTTCAGTTTGAAAG on RARa:RXR (NR concentration 270 nM, RXRa partner concentration 90 nM)?
Outgoing: 3.39

Incoming: Recall the recorded PBM binding z-score for ACATGTAGGTTAGGGTCATTCAGAAAGTAGGGAA with RARa:RXR (NR concentration 270 nM, RXRa partner concentration 90 nM) and state it.
Outgoing: 5.07

Incoming: Form entry - test system: RARa:RXR (NR concentration 270 nM, RXRa partner concentration 90 nM); read-out: PBM binding z-score; sequence: CCGAGTAGGTTACAAGGGGGCATTCAGTGCGAAT
Outgoing: 3

Incoming: Which PBM binding z-score is reported with RARa:RXR (NR concentration 270 nM, RXRa partner concentration 90 nM) for this entry: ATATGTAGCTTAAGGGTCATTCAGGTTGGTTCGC ?
Outgoing: 4.2

Incoming: Record TAGCCTAGGCCATGGGCCAGTATACCACGCGAAC : what is its PBM binding z-score with RARa:RXR (NR concentration 270 nM, RXRa partner concentration 90 nM)?
Outgoing: -0.86

Incoming: Hello, I am looking for reported PBM binding z-score with RARa:RXR (NR concentration 270 nM, RXRa partner concentration 90 nM) for TCTAGTTGGTCAAAGGCCACACACTCGAAATGCG . Could you help?
Outgoing: 1.28

Incoming: What value of PBM binding z-score on RARa:RXR (NR concentration 270 nM, RXRa partner concentration 90 nM) does TAGCCTAGGTTATGCGGGCCAGTATAGTGTCGGC have?
Outgoing: -0.208

* * *

This listing pairs sequences with measured PBM binding z-score.
System: PPARa:RXRa (NR concentration 270 nM, RXRa partner concentration 90 nM)
Test: PBM binding z-score (relative to random genomic background probes); higher = stronger binding; sequences stand for … in GC…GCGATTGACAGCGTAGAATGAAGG
API note: the answer field is a bare number with no unit suffix.

Incoming: I'm curious: which PBM binding z-score was measured for CAAACTAGGTCACAGAGGGCAAAGTCCGTGCGTA tested on PPARa:RXRa (NR concentration 270 nM, RXRa partner concentration 90 nM)?
Outgoing: 5.45

Incoming: // lookup PBM binding z-score | system=PPARa:RXRa (NR concentration 270 nM, RXRa partner concentration 90 nM) | key= ATATGTACGTTAGGGTCATTCAGAAAGTAGGGAA
Outgoing: 4.77

Incoming: Request body: readout PBM binding z-score, system PPARa:RXRa (NR concentration 270 nM, RXRa partner concentration 90 nM), query CGAACTAGGTCAAAGGATAGTGAAAGGCGACGTA . Return the value.
Outgoing: 4.93

Incoming: GET /values?readout=PBM binding z-score&system=PPARa:RXRa (NR concentration 270 nM, RXRa partner concentration 90 nM)&item= CGATCTAGGTCAAAGGACAGTGAAAGGCGACGTA
Outgoing: 5.27

Incoming: Can you look up PBM binding z-score on PPARa:RXRa (NR concentration 270 nM, RXRa partner concentration 90 nM) for AGTCAAAGTTCACGACGAGGTAACGTAAAGCACG ?
Outgoing: 5.45

Incoming: Find PBM binding z-score (PPARa:RXRa (NR concentration 270 nM, RXRa partner concentration 90 nM)) for the entry CTAACTAGGTCACAGAGGTCAAAGTCCGTGCGTA
Outgoing: 6.62

* * *

Recorded PBM binding z-score by entry
Tested on: PPARg homodimer (NR concentration 180 nM)
Experiment: PBM binding z-score (relative to random genomic background probes); higher = stronger binding; sequences stand for … in GC…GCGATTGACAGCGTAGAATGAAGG

Solved cases below.
Incoming: Form field: reported PBM binding z-score of CCTAGTTGGTCAGGAAGTCACACACCGGATATGA
Outgoing: 1.03

Incoming: For the sequence shown here, GATACAGGGTCAACTAGAGGCCAGAGTATGGAAA , give the reported PBM binding z-score.
Outgoing: 3.88

Incoming: // PBM binding z-score lookup, key: CGTCCAAGGTCAATGCTAGCTCAGTGAAAGCATT
Outgoing: 0.0664

Incoming: Which PBM binding z-score value is on record for CAAACTAGGTCAAAGGTCAACGTCGAGCCAACCA ?
Outgoing: 10.7

Incoming: Which PBM binding z-score value is on record for TCGAGTAGGTTACGGGGGGATTCAGGGATGAAGA ?
Outgoing: 3.89

Incoming: Please report the recorded PBM binding z-score for ATACGTAGGTTATCGGGTCATTCAGTTTGCGCAT .
Outgoing: 2.79

Incoming: Entry CGTCAAAGTTCAACTAAGTTAACGTAAAGCACGC has what PBM binding z-score?
Outgoing: 2.97

Incoming: Fill in: PBM binding z-score of GCTATTAGGTGAAAGGGCAACCGAATGATTCTCG is ___
Outgoing: 1.6

# next sequence below
Incoming: Sample CTTAGTTGGTCAGGAGGTCACACACCGGATATGA — what was its PBM binding z-score?
Outgoing: 3.81

* * *

Tested on: PPARg DBDmut:RXRa IVT, anti-PPARg (DBD mutation: PPARg1 K132A/R137A, NR concentration 270 nM, RXRa partner concentration 90 nM)
Assay: PBM binding z-score (relative to random genomic background probes); higher = stronger binding; sequences stand for … in GC…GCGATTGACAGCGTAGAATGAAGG
# PBM binding z-score per record follows
Format: numeric value only, no unit, no commentary.

Recorded PBM binding z-score, per entry:
Incoming: Please give the measured PBM binding z-score for this sequence: CCTACTGGGCCAAAACGGTCATTGATGCCGATAA
Outgoing: 0.0613

Incoming: What does the record list as PBM binding z-score for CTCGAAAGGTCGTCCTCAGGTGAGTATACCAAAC ?
Outgoing: 0.216

Incoming: # lookup: PBM binding z-score of CCTGCTAGGACAATGGTCAGCTAAAGCAGCTCGC
Outgoing: -1.25

Incoming: Requested field: PBM binding z-score. Item: ATCTCTAGGTAAAGTTCATTGAAAGATCGATAGA
Outgoing: 2.23

Incoming: Can you look up the measured PBM binding z-score of GCTTACGGGTCAAAGGTTATAGTATGAATAGAAT for me?
Outgoing: 1.28

Incoming: For the sequence shown here, CCTGCTAGGTCAAGGGTCAGCTAAAGCAGCTCGC , give the reported PBM binding z-score.
Outgoing: 0.536

Incoming: Fill in: PBM binding z-score of TCTAGCTGGTCACGGAGGTCACACACGACGGGTA is ___
Outgoing: 0.457

Incoming: So what does the record say about PBM binding z-score for GTACCAAGGTGAATAGGTCGTTGATGAGTAGGCG ?
Outgoing: 0.41

Incoming: Which PBM binding z-score value is on record for AGAATGGGGTTATTAAGATCAGGGAATTGCGGTC ?
Outgoing: 1.44

Incoming: Quick one: PBM binding z-score for TAGCCTAGGTCATTGTGCCAGTATAGTACGCATC ?
Outgoing: -0.0725

New cases:
Incoming: Requested read-out: PBM binding z-score. Entry: CCTACTGGGCCAAGGTCATTGCTCAGTCAAAGCA
Outgoing: 0.15

Incoming: For the sequence shown here, CCTTACGGGTCACTTACAGGTTATAGCATTTGGA , give the reported PBM binding z-score.
Outgoing: 0.739

Provenance of the data: the supplement of paper PMC6555819
